assay: amyloid nucleation score (Sup35N fusion, yeast selection) (log enrichment); library NNK2; higher = more nucleation; inactive = no reads after selection;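 further: zero at mode of non-aggregating sequences after 7 days selection at 30°C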
observationType: amyloid nucleation score

substance=PGLTVYFGTVRMKVHCWSYR valueobserved=9.78
substance=PQHFGEPTLIMVGKGLGCLR valueobserved=0.178
substance=YSVTLGGWIREQSLQLSTSS valueobserved=0.768
substance=GEQVWCVGCPYVRWNSLHAG valueobserved=8.76
substance=DNVKVWSGFTRY valueobserved=-0.148
substance=ACAMFSKRSHSITSVVMGYG valueobserved=0.29
substance=GKGNLQSCYEWKYKKLYVHT valueobserved=-0.248
substance=VQATGADVFWDW valueobserved=-0.199
substance=IWSSHRVSHGVILESGEVWA valueobserved=-0.25
substance=SIVMFVCDLRNQPTAIFRDR valueobserved=8.26
substance=HQLPVHEPYEYWLQQGSNCP valueobserved=0.353
substance=YYLICST valueobserved=0.023
substance=ILRFEAIYFEIMPHVYKVVK valueobserved=-0.409
substance=TCVVIQGIRGWGWMSVSFMP valueobserved=-0.829
substance=RLHPMRSNI valueobserved=-0.43
substance=HALGGDWHGLGGINS valueobserved=-1.43
substance=GTTCDIEDVPCMLVVDTLLV valueobserved=1.42
substance=YLYPSCCIRYILILNFYTVI valueobserved=0.013
substance=QSNVCKIGSGVDESGNNMTL valueobserved=0.532
substance=KAFFFPQFCCIYGLGM valueobserved=8.9
substance=LYRRIRCFIYPFCKGVRCLC valueobserved=-1.77
substance=LERNSMPITVSWSGFEGLKG valueobserved=-0.295
substance=CVDSKWLYFGRWSTQVIDI valueobserved=-0.196
substance=SDCFMGANDVMNKLEYGLDA valueobserved=0.091
substance=SILFNVARGCAGVPNLKSYS valueobserved=-0.43
substance=LGDAHALCGRLTVCRGGTGP valueobserved=3.58
substance=SSTYIERGLSHGKDRT valueobserved=0.731
substance=FDSYTIMVI valueobserved=0.682
substance=LSLRDVGGLLSNLSIMCGKG valueobserved=0.144
substance=STMVVRVFIGNVFMSFNMIR valueobserved=4.36
substance=ISIVPYYNLGIGGRVTGSEA valueobserved=0.012
substance=NAIYLVRMDYS valueobserved=0.138
substance=INLYRSVGPKKWYTGEVLMA valueobserved=-0.137
substance=VFTTLDWTSKYALIR valueobserved=0.56
substance=NKRGQFMNMQLEKSLYFQGL valueobserved=-1.15
substance=KELYTSVSQGLCRYSISSCR valueobserved=-0.786
substance=YQRMPSIYGEVVCHQSCQGV valueobserved=-0.069
substance=GYINWSCDRDMFSRTTDFLG valueobserved=-0.592
substance=YGGKSHPLIWFACIWSYIVN valueobserved=3.04
substance=SLDCPGFGRAYV valueobserved=1.62
substance=GRIVVFV valueobserved=0.538
substance=FNINSPTALSYFMVLEVPLV valueobserved=2.42
substance=RVASVSYVSVWYEMCQCFRG valueobserved=9.5
substance=ALWTLNDSSPDYKSPYTGGS valueobserved=0.508
substance=FCFISSYVPKLYSLKSQVVI valueobserved=-0.988
substance=NGISYQRMTGNGFVESNGAS valueobserved=4.68
substance=VRVHCLHLVYYYSQCPRYNN valueobserved=-0.277
substance=YSFNLCNS valueobserved=-0.013
substance=TLNRTW valueobserved=0.166
substance=VSRSVY valueobserved=0.166
substance=RMSHWLSYWVDKS valueobserved=0.938
substance=VWQFRCGERMTKCLLWGDYG valueobserved=0.072
substance=SSMLANSMWRSFSVSYGTML valueobserved=0.929
substance=RYSNMLN valueobserved=3.83
substance=FTVGSMSGDFWLLCWYLR valueobserved=3.09

====

test: amyloid nucleation score (Sup35N fusion, yeast selection) (log enrichment); library NNK2; higher = more nucleation; inactive = no reads after selection
The following sequences are listed with their measured amyloid nucleation score values.
observationType: amyloid nucleation score

monomersequence=GDVDEWCLTGLGLSNIMVGQ valueobserved=1.52
monomersequence=IIPCRSLFAFNMMVM valueobserved=0.288
monomersequence=LWFQVTFDRICLQITTHTEL valueobserved=4.86
monomersequence=NLPSWLVGRRSVWECYRLDT valueobserved=0.043
monomersequence=IGTNSGAINSVSHGLLAGYG valueobserved=1.24

====

assay: amyloid nucleation score (Sup35N fusion, yeast selection) (log enrichment); library NNK1; higher = more nucleation; inactive = no reads after selection
# amyloid nucleation score >= 0.2 gives Fulfilled, anything below gives Not fulfilled

substance=NPLHGARFLIGNVFIIRNFK grouplabel=Fulfilled
substance=SLNPALFTVSYPLVMLENDT grouplabel="Not fulfilled"
substance=CGVNLKNLLTMLPDIGLHAV grouplabel=Fulfilled
substance=KRIVCMFSWPSLT grouplabel="Not fulfilled"
substance=LNRLSFLV grouplabel="Not fulfilled"
substance=RDHTIRPLWIAGSHMQFLNR grouplabel=Fulfilled
substance=WEKNFKIGESRCSV grouplabel="Not fulfilled"
substance=NNLRYPCLGRCSISFGMVCG grouplabel=Fulfilled
substance=FLCLLMFPIRHRL grouplabel="Not fulfilled"
substance=PSWSPKAIKFQHVLYFVKFL grouplabel=Fulfilled
substance=HCFYYCMANRL grouplabel=Fulfilled
substance=ILSEPNELTGACLAS grouplabel=Fulfilled
substance=DGLLTGLQDRPNSSRFKYVM grouplabel=Fulfilled
substance=KSTSYNLIDIMAGSSLTNNR grouplabel=Fulfilled
substance=RASHGAYDNFRGKKFMMRVM grouplabel="Not fulfilled"
substance=LMISGPYWR grouplabel="Not fulfilled"
substance=LNGWIVEGLNNADLTRRRWV grouplabel=Fulfilled
substance=DVYTLMGEVDELRSFRIIIR grouplabel="Not fulfilled"
substance=FCDRNIIVCSELGKGWLWLR grouplabel=Fulfilled
substance=NLHNRTCWCMYLFDTSWS grouplabel="Not fulfilled"
substance=YRYHVSCTYAVSLGAAKSNA grouplabel="Not fulfilled"
substance=VLEWRGPF grouplabel="Not fulfilled"
substance=ETHLIGVCYNRCL grouplabel=Fulfilled
substance=LRSKFRCLSILVRMVIIDCF grouplabel=Fulfilled
substance=QNMWIHCWCGRGGMMTREPG grouplabel=Fulfilled
substance=EVCFCEGEVKFWGKGAIFSR grouplabel="Not fulfilled"
substance=VSQSETCPGV grouplabel=Fulfilled
substance=AYLYQSSYLVRC grouplabel=Fulfilled
substance=FMTSDPYVLIHQALVRINEY grouplabel=Fulfilled
substance=FDGFNFISWIVR grouplabel=Fulfilled
substance=CVSYNLFLWSYFKRWSNRTC grouplabel="Not fulfilled"
substance=ARMSNMNPLFWLP grouplabel="Not fulfilled"
substance=IEDAALRSKEPGFVQHNYSS grouplabel=Fulfilled
substance=KETSVSLHEDGIYCGFITSN grouplabel="Not fulfilled"
substance=TGLVWYYCHSHRWNFRPCQW grouplabel="Not fulfilled"
substance=FCNSALLSQLGFLKTWDQRG grouplabel="Not fulfilled"
substance=GRSSTRRNLIVDQSSVSERC grouplabel="Not fulfilled"
substance=WFARNTLLEWEN grouplabel="Not fulfilled"
substance=NPTNVSVWGTRGPGCVDYWY grouplabel="Not fulfilled"
substance=LFFQANKLLVIYNCRIYTTF grouplabel=Fulfilled
substance=RGRRDAGGYRSKSFLGAWGV grouplabel=Fulfilled
substance=INDSRFVAYTCLRVTEKYGL grouplabel=Fulfilled
substance=LLALCCDSLRCYR grouplabel=Fulfilled
substance=ILNTTHCHKHKKTCEHSACD grouplabel="Not fulfilled"
substance=CVMWGTLRFLNLASGLFLCA grouplabel=Fulfilled
substance=AWVRLYWAGR grouplabel=Fulfilled
substance=LYYNFKF grouplabel=Fulfilled
substance=QVCLNDRNSSYVMRDICVY grouplabel="Not fulfilled"
substance=RNIWNLVLDKNAHMNCFMTH grouplabel="Not fulfilled"
substance=SMFGFTYIVGRMDGSIGWSL grouplabel=Fulfilled
substance=EMNVSILKHAYSQALSFARW grouplabel="Not fulfilled"
substance=KSYNWDYGHLRVNYGGHMMI grouplabel="Not fulfilled"
substance=KVFGTRPSQCLGFN grouplabel="Not fulfilled"
substance=VTGWFYAGILYAFLYSQVLF grouplabel="Not fulfilled"
substance=GCFASTSNTRC grouplabel=Fulfilled
substance=CKVTSGDIQTYGVLGPQRPA grouplabel="Not fulfilled"
substance=IRRATF grouplabel=Fulfilled
substance=DLFYINIVMKSFVHWVNHLH grouplabel=Fulfilled
substance=MVVFRSY grouplabel="Not fulfilled"
substance=GRDRSWDIRWLYTLTEPTWH grouplabel="Not fulfilled"
substance=ASSIDYQRTS grouplabel=Fulfilled
substance=FEVSGMCRVQVVTYNFFSSS grouplabel=Fulfilled
substance=SWDSLGHYNGAIE grouplabel="Not fulfilled"
substance=EQRVNLISVWIRGDLETPHG grouplabel=Fulfilled
substance=NLSSLSWVTIYKNFCAIMSS grouplabel="Not fulfilled"
substance=YRITERIFFDQKASHVWLIT grouplabel="Not fulfilled"
substance=LFTIMMQPMGCHPCRPLASQ grouplabel="Not fulfilled"
substance=ENPWFMCICYGANRVHVCNG grouplabel=Fulfilled
